Test system: ZIKV replicon in Vero cells
Test: ZIKV Replication Inhibition Assay (replicon, NanoLuc)
Details: Zika virus, Vero, 72 h, read-out: Zika Replicon EC50
pEC50: −log10 of the molar value.
Provide the recorded pEC50 for the entries that follow.

> print(dat)
                                   compound                   systemname  quantity      observed
1  Cc1ncccc1-c1ccc(C[n+]2cc([N-]C(=O)Nc3cccc(C(F)(F)F)c3)on2)cc1  ZIKV replicon in Vero cells     pEC50        > 7.00
2  O=C([N-]c1c[n+]([C@@H]2CCC[C@H]2c2ccccc2)no1)Nc1cccc(C(F)(F)F)c1  ZIKV replicon in Vero cells     pEC50  6.00 to 7.00
3  COc1ncnc(C)c1-c1ccc(C[n+]2cc([N-]C(=O)Nc3cccc(C(F)(F)F)c3)on2)cc1  ZIKV replicon in Vero cells     pEC50        > 7.00

Batch of 8 compounds: report pEC50 for each.
1. Cc1noc(C)c1-c1ccc(C[n+]2cc([N-]C(=O)Nc3cccc(C4CC4)c3)on2)nc1
2. NC[C@@H](Cc1ccc(-c2ccccc2)cc1)[n+]1cc([N-]C(=O)Nc2cccc(C(F)(F)F)c2)on1
3. Cc1nc(OCCN(C)C)ncc1-c1ccc(C[n+]2cc([N-]C(=O)Nc3cccc(C(F)(F)F)c3)on2)nc1
4. O=C([N-]c1c[n+](Cc2ccc(I)cc2)no1)Nc1cccc(C(F)(F)F)c1
5. C[C@H](c1ccc(-c2cncnc2)cc1)[n+]1cc([N-]C(=O)Nc2cccc(C(F)(F)F)c2)on1
6. CC(Cc1ccccc1)[n+]1cc([N-]C(=O)Nc2ncc(C(F)(F)F)s2)on1 (centres unmarked)
7. O=C([N-]c1c[n+](C2(c3ccccc3)CC2)no1)Nc1cccc(C(F)(F)F)c1
8. O=C([N-]c1c[n+](Cc2ccc(-c3cncnc3)cn2)no1)Nc1cccc(C(F)(F)F)c1

1. 6.00 to 7.00
2. 4.70 to 6.00
3. 6.00 to 7.00
4. 6.00 to 7.00
5. 6.00 to 7.00
6. 4.70 to 6.00
7. 4.70 to 6.00
8. 6.00 to 7.00

Go through the items and report each one's pEC50.
1. O=C([N-]c1c[n+](CCc2ccccc2)no1)Nc1cccc(C(F)(F)F)c1
2. Cc1cnncc1-c1ccc(C[n+]2cc([N-]C(=O)Nc3cccc(C(F)(F)F)c3)on2)nc1
3. Cc1ncnc(C)c1-c1ccc(C[n+]2cc([N-]C(=O)Nc3ccnc(C(F)(F)F)c3)on2)cc1
4. O=C([N-]c1c[n+](Cc2cccnc2)no1)Nc1cccc(C(F)(F)F)c1

1: 6.00 to 7.00; 2: 6.00 to 7.00; 3: > 7.00; 4: 4.70 to 6.00

Required: pEC50, one value per compound below.
1. COc1ncc(-c2ccc(C[n+]3cc([N-]C(=O)Nc4cccc(C(F)(F)F)c4)on3)cc2)c(C)n1
2. O=C([N-]c1c[n+](Cc2ccc(-c3cncnc3C(F)(F)F)cc2)no1)Nc1cccc(C(F)(F)F)c1

1. > 7.00
2. > 7.00
